Value source: paper PMC6201305

# Target Desc: wild type GPR17 (Homo sapiens)
# Method Notes: FAC-MS screening on GPR17-IAM-I column
# Assay type: binding
# Experimental Parameters: Library A mixture, column GPR17-IAM-I
Measured Quantity: t/tc × 100, percentage of breakthrough time with respect to cangrelor (%)
Note: unit % is implicit; provide only the numeric part.

Solved cases (5 shown):
Compound	Target Desc	Unit	Measured
N.N.N.O=c1[nH]c(=O)n([C@@H]2O[C@H](COP(=O)(O)OP(=O)(O)O)[C@@H](O)[C@H]2O)cc1I	wild type GPR17 (Homo sapiens)	%	16.54
CNc1nc(Cl)nc2c1ncn2[C@@H]1O[C@H](COP(=O)(O)OP(=O)(O)OP(=O)(O)O)[C@@H](O)[C@H]1O.N.N.N.N	wild type GPR17 (Homo sapiens)	%	37.56
CCCCC#Cc1cn([C@@H]2O[C@H](COP(=O)(O)OP(=O)(O)O)[C@@H](O)[C@H]2O)c(=O)[nH]c1=O [Compound 14, 5-Hexynyluridine Diphosphate]	wild type GPR17 (Homo sapiens)	%	19.67
N.N.N.N.Nc1nc(C#Cc2ccccc2)nc2c1ncn2[C@@H]1O[C@H](COP(=O)(O)OP(=O)(O)OP(=O)(O)O)[C@@H](O)[C@H]1O	wild type GPR17 (Homo sapiens)	%	120.37
N.N.N.N.O=P(O)(O)OP(=O)(O)OP(=O)(O)OC[C@H]1O[C@@H](n2cnc3c(NC4CCCC4)ncnc32)[C@H](O)[C@@H]1O	wild type GPR17 (Homo sapiens)	%	49.90

### Prompt Please look up its t/tc × 100, percentage of breakthrough time with respect to cangrelor: "N.N.Nc1nc(Cl)nc2c1ncn2[C@H]1C[C@H](OP(=O)(O)O)[C@@H](COP(=O)(O)O)O1"
### Response 25.99

### Prompt Please look up its t/tc × 100, percentage of breakthrough time with respect to cangrelor: "CNc1ncnc2c1ncn2[C@H]1C[C@H](OP(=O)(O)O)[C@@H](COP(=O)(O)O)O1.N.N"
### Response 28.92

### Prompt Please look up its t/tc × 100, percentage of breakthrough time with respect to cangrelor: CSCCNc1nc(SCCC(F)(F)F)nc2c1ncn2[C@@H]1O[C@H](COP(=O)([O-])OP(=O)([O-])C(Cl)(Cl)P(=O)([O-])[O-])[C@@H](O)[C@H]1O.[Na+].[Na+].[Na+].[Na+] [Cangrelor, cangrelor, reference compound]
### Response 100.00

### Prompt Please look up its t/tc × 100, percentage of breakthrough time with respect to cangrelor: "CNc1nc(Cl)cc2c1ncn2[C@@H]1O[C@H](COP(=O)(O)OP(=O)(O)OP(=O)(O)O)[C@@H](O)[C@H]1O.N.N.N.N"
### Response 45.05

----------
Items are presented alongside their recorded breakthrough time Mutated GPR17-IAM (Table 5).
# Target Desc: mutated GPR17 receptor (Arg255Ile) (Homo sapiens, UniProt Q13304, R283I)
# Sequence (Q13304 29-367 R283I): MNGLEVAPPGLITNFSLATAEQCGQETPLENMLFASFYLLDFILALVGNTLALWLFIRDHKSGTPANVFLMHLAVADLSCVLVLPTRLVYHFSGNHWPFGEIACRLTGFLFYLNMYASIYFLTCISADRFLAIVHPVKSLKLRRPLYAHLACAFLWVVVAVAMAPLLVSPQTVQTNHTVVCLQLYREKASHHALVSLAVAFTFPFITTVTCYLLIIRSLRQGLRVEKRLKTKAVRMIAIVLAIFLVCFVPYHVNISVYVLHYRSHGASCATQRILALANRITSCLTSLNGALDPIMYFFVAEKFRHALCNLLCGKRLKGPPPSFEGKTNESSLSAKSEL
# Method Notes: FAC-MS screening on mutated GPR17-IAM column
# Format: binding
# Experimental Parameters: Library A, 1 µM each, mutated GPR17-IAM column (19.5 million cells)

Solved cases (2 shown):
> print(dat)
                                   compound  measured
1  CNc1nc(Cl)cc2c1ncn2[C@@H]1O[C@H](COP(=O)(O)OP(=O)(O)OP(=O)(O)O)[C@@H](O)[C@H]1O.N.N.N.N [Compound 8]      5.79
2  CNc1ncnc2c1ncn2[C@@H]1O[C@H](COP(=O)(O)OP(=O)(O)OP(=O)(O)O)[C@@H](O)[C@H]1O.N.N.N.N [Compound 5]      4.08

Next item in the queue.
### Prompt Please look up its breakthrough time Mutated GPR17-IAM (Table 5): N.N.Nc1nc(Cl)nc2c1ncn2[C@H]1C[C@H](OP(=O)(O)O)[C@@H](COP(=O)(O)O)O1 [Compound 12]
### Response 3.54

----------
# Target Desc: wild type GPR17 (Homo sapiens, UniProt Q13304)
# Sequence (Q13304 29-367): as the sequence (Q13304 29-367 R283I) above, with I255R counted along it
# Method Notes: [35S]GTPγS binding functional assay, 1321N1 cells expressing wild-type GPR17
# Assay type: biochemical
# Experimental Parameters: wild-type GPR17
Measured Quantity: pharmacological profile (agonist/antagonist) in [35S]GTPγS binding

> print(dat)
                                   compound         measured
1  CNc1nc(Cl)cc2c1ncn2[C@@H]1O[C@H](COP(=O)(O)OP(=O)(O)OP(=O)(O)O)[C@@H](O)[C@H]1O.N.N.N.N [Compound 8]  agonist profile
2  N.N.N.N.Nc1nc(C#Cc2ccccc2)nc2c1ncn2[C@@H]1O[C@H](COP(=O)(O)OP(=O)(O)OP(=O)(O)O)[C@@H](O)[C@H]1O [Compound 4]  agonist profile
3  CNc1nc(Cl)nc2c1ncn2[C@@H]1O[C@H](COP(=O)(O)OP(=O)(O)OP(=O)(O)O)[C@@H](O)[C@H]1O.N.N.N.N [Compound 7]  agonist profile

----------
Items are presented alongside their recorded breakthrough time GPR17-IAM-II (Table 5).
# Target Desc: wild type GPR17 (Homo sapiens, UniProt Q13304)
# Method Notes: FAC-MS screening on GPR17-IAM-II column
# Type: binding
# Experimental Parameters: Library A, 1 µM each, column GPR17-IAM-II (19.5 million cells)
Enter the number alone.

Solved cases (5 shown):
Compound	breakthrough time GPR17-IAM-II (Table 5)
N.N.Nc1nc(Cl)nc2c1ncn2[C@H]1C[C@H](OP(=O)(O)O)[C@@H](COP(=O)(O)O)O1 [Compound 12]	3.55
N.N.N.N.O=P(O)(O)OP(=O)(O)OP(=O)(O)OC[C@H]1O[C@@H](n2cnc3c(NC4CCCC4)ncnc32)[C@H](O)[C@@H]1O [Compound 6]	5.67
CNc1ncnc2c1ncn2[C@@H]1O[C@H](COP(=O)(O)OP(=O)(O)OP(=O)(O)O)[C@@H](O)[C@H]1O.N.N.N.N [Compound 5]	3.69
CSCCNc1nc(SCCC(F)(F)F)nc2c1ncn2[C@@H]1O[C@H](COP(=O)([O-])OP(=O)([O-])C(Cl)(Cl)P(=O)([O-])[O-])[C@@H](O)[C@H]1O.[Na+].[Na+].[Na+].[Na+] [Cangrelor, cangrelor, reference compound]	10.60
O=c1ccn([C@@H]2O[C@H](COP(=O)([O-])OP(=O)([O-])[O-])[C@@H](O)[C@H]2O)c(=O)[nH]1.[Na+].[Na+].[Na+] [UDP, uridine diphosphate]	2.69

### Prompt Please look up its breakthrough time GPR17-IAM-II (Table 5): CCCCC#Cc1cn([C@@H]2O[C@H](COP(=O)(O)OP(=O)(O)O)[C@@H](O)[C@H]2O)c(=O)[nH]c1=O [Compound 14, 5-Hexynyluridine Diphosphate]
### Response 2.97

### Prompt Please look up its breakthrough time GPR17-IAM-II (Table 5): CNc1ncnc2c1ncn2[C@H]1C[C@H](OP(=O)(O)O)[C@@H](COP(=O)(O)O)O1.N.N [MRS2179, MRS 2179]
### Response 3.62

### Prompt Please look up its breakthrough time GPR17-IAM-II (Table 5): CNc1nc(Cl)cc2c1ncn2[C@@H]1O[C@H](COP(=O)(O)OP(=O)(O)OP(=O)(O)O)[C@@H](O)[C@H]1O.N.N.N.N [Compound 8]
### Response 4.77

### Prompt Please look up its breakthrough time GPR17-IAM-II (Table 5): CNc1nc(Cl)nc2c1ncn2[C@@H]1O[C@H](COP(=O)(O)OP(=O)(O)OP(=O)(O)O)[C@@H](O)[C@H]1O.N.N.N.N [Compound 7]
### Response 4.50

### Prompt Please look up its breakthrough time GPR17-IAM-II (Table 5): N.N.N.O=c1[nH]c(=O)n([C@@H]2O[C@H](COP(=O)(O)OP(=O)(O)O)[C@@H](O)[C@H]2O)cc1I [Compound 13]
### Response 2.79

### Prompt Please look up its breakthrough time GPR17-IAM-II (Table 5): N.N.N.N.Nc1nc(C#Cc2ccccc2)nc2c1ncn2[C@@H]1O[C@H](COP(=O)(O)OP(=O)(O)OP(=O)(O)O)[C@@H](O)[C@H]1O [Compound 4]
### Response 13.07
